All values here come from ChEMBL document CHEMBL4513216.

tested on: Plasmodium berghei; assay: Screen against P. berghei liver stage (PbLuc), transformed with Luciferase, at 2uM; assay type: functional, HepG2; conditions: tested at 2 uM
Screen size: about 68,000 compounds; about 2,700 (4%) showed an effect of 50% or more. What follows is part of a selection rich in strong results, with near analogues and random picks from the rest.
EXPERIMENTAL_ENDPOINT: INHIBITION (%)
API: value field is a number in %; no unit string.

Ask: Quick one: INHIBITION of `Cc1ccc(Nc2nccc(C3CN(CC(N)=O)C3)n2)nc1` ?
Result: 9.79

Ask: // same read-out, input: CC(C)(C)SCC(=O)NC(C)(C(N)=O)c1cccc(Cl)c1 (centres undefined)
Result: -20.64

Ask: // same read-out, input: `Cc1cc(C(=O)N2CCOC[C@H](Oc3cccnc3)C2)c(C(F)(F)F)o1`
Result: 19.42

Ask: // same read-out, input: O=C(C1CCC1)N1CCCC(c2ccnc(Nc3cnccn3)n2)C1 (centres undefined)
Result: 57.82

Ask: // same read-out, input: `CO[C@H]1COCCN(C(=O)c2cc(C)oc2C(F)(F)F)C1`
Result: 35.89

Ask: // same read-out, input: CC(C)(C)C1CCC(O)(CNC(=O)CCS(C)(=O)=O)CC1 (centres undefined)
Result: -16.28

Ask: // same read-out, input: `Cc1cccc(CN2CC[C@@H]3[C@@H]2CCN3C(=O)c2cc(C)on2)n1`
Result: 26.01

Ask: // same read-out, input: Cc1ccsc1-c1nccn1CCN1CCCCC1CO (centres undefined)
Result: -12.08

Ask: // same read-out, input: `CN1CCC2(C=C(C(=O)N(C)C)c3ccccc32)CC1`
Result: -10.89

Ask: // same read-out, input: `Cc1cc(C(=O)N2CCOC[C@H](Oc3cnccn3)C2)c(C(F)(F)F)o1`
Result: 52.91

Ask: // same read-out, input: O=C(C1CCCC1)N1CCC(c2ccnc(Nc3cnccn3)n2)C1 (centres undefined)
Result: 37.81

Ask: // same read-out, input: Cc1ccc(Nc2nccc(C3CCCN(CC(=O)N(C)C)C3)n2)nc1 (centres undefined)
Result: -28.81

Ask: // same read-out, input: COc1ccc(CNC(=O)NC2CCC(O)CC2)c(C(F)(F)F)c1 (centres undefined)
Result: 24.83

Ask: // same read-out, input: `NS(=O)(=O)c1ccc(NCc2ccco2)c2ncccc12`
Result: 7.3

Ask: // same read-out, input: `CCS(=O)(=O)N1CCc2ccc(NC(=O)Nc3cccc(SC)c3)cc21`
Result: 47.4

Ask: // same read-out, input: `CN(C)c1nccc(N(C)Cc2nc3ccccc3n2C)n1`
Result: 13.51

Ask: // same read-out, input: CCN1CCCC1CN(Cc1ccon1)CC1CCN(CCOC)CC1 (centres undefined)
Result: 55.66

Ask: // same read-out, input: `CN(C)S(=O)(=O)N1C[C@H]2CC[C@@H](C1)N(Cc1ccc(F)c(F)c1)C2`
Result: 53.12

Ask: // same read-out, input: `Cn1cc(C(=O)N2CC[C@@H]3[C@@H]2CCN3Cc2ccccc2)cn1`
Result: 28.85

Ask: // same read-out, input: `Cc1ccc(C(=O)NC2CCN(C(=O)Nc3ccccn3)CC2)o1`
Result: 20.11

Ask: // same read-out, input: OCC1CCCCN1CCn1ccnc1-c1ccc2c(c1)OCCO2 (centres undefined)
Result: 63.46

Ask: // same read-out, input: Cc1cc(-c2nccn2CCN2CCCCC2CO)oc1C (centres undefined)
Result: 47.04

Ask: // same read-out, input: `CCS(=O)(=O)N1CCc2ccc(NC(=O)Nc3ccccc3)cc21`
Result: 20.38

Ask: // same read-out, input: Cc1ccc(Nc2nccc(C3CCN(CC(N)=O)C3)n2)nc1 (centres undefined)
Result: 85.75

Ask: // same read-out, input: `O=C(COCc1ccccc1)Nc1ccccn1`
Result: 62.51

Ask: // same read-out, input: `COC(=O)c1ccc(CN2CCC(c3n[nH]c(C)n3)CC2)s1`
Result: -54.89

Ask: // same read-out, input: `Cc1ccc(C(=O)N2CCN(C(=O)Nc3ccccn3)CC2)o1`
Result: 60.93

Ask: // same read-out, input: `CN1CCN2C(=O)N(C3CCCCC3)C[C@H]2C1`
Result: -22.32

Ask: // same read-out, input: CCCc1nc(C[S+]([O-])Cc2cn3cccc(C)c3n2)no1 (centres undefined)
Result: 16.37

Ask: // same read-out, input: `Cc1cccc(CN2CC[C@H]3[C@H]2CCN3C(=O)c2cnn(C)c2)n1`
Result: 51.4

Ask: // same read-out, input: `CS(=O)(=O)N1CCN2C(=O)N(C3CCOCC3)C[C@H]2C1`
Result: 35.89

Ask: // same read-out, input: `NCc1cnc(Nc2ccccc2)nc1`
Result: 16.87

Ask: // same read-out, input: `Cn1cc(C(=O)N2CC[C@@H]3[C@@H]2CCN3Cc2cccnc2)cn1`
Result: -31.39

Ask: // same read-out, input: O=C(Nc1ccccc1)C1CN(Cc2nccs2)CC12CCOCC2 (centres undefined)
Result: 11.9

Ask: // same read-out, input: `Cc1cccc(CN2CC[C@H]3[C@H]2CCN3Cc2cnn(C)c2)n1`
Result: 46.68

Ask: // same read-out, input: `CSc1ccc(NC(=O)COCc2ccccc2)nc1`
Result: 12.43

Ask: // same read-out, input: CC(=O)N1CCCC(c2ccnc(Nc3cnccn3)n2)C1 (centres undefined)
Result: -39.95

Ask: // same read-out, input: `Cn1cc(C(=O)N2CC[C@@H]3[C@@H]2CCN3Cc2ccncc2)cn1`
Result: 70.31

Ask: // same read-out, input: `CCS(=O)(=O)N1CCc2ccc(NC(=O)Nc3cccc(F)c3)cc21`
Result: 78.93

----------
For each entry below, report its INHIBITION value.
tested on: Plasmodium berghei; test: Screen against P. berghei liver stage (PbLuc), transformed with Luciferase, at 2uM; assay type: functional, HepG2; conditions: tested at 2 uM
Among all 68,000 compounds or so, about 2,700 (4%) showed an effect of 50% or more. Many of the other results were omitted from the sample, so strong results are more common in it than they were.
API: value field is a number in %; no unit string.

Ask: Quick one: INHIBITION of Cc1c(C2CC2)n[nH]c1NC(=O)C1CCCN(C(=O)NCC(C)C)C1 (stereo not drawn) ?
Result: -7.81

Ask: // same read-out, input: `O=C(c1ccc(F)cc1Cl)N1CCC(Nc2cccnn2)CC1`
Result: 8.37

Ask: // same read-out, input: `CC(C)(C)c1nnc(CSc2ccccn2)o1`
Result: 58.9

----------
tested on: Plasmodium berghei; assay: Screen against P. berghei liver stage (PbLuc), transformed with Luciferase, at 2uM; type: functional, HepG2; settings: tested at 2 uM
About 2,700 (4%) of roughly 68,000 compounds showed an effect of 50% or more. This excerpt belongs to a sample that is enriched for strong results.
EXPERIMENTAL_ENDPOINT: INHIBITION (%)
API: value field is a number in %; no unit string.

Ask: Quick one: INHIBITION of `Cc1cc(NCCCNS(C)(=O)=O)nc2ccccc12` ?
Result: 20.88

Ask: // same read-out, input: `CN(CCc1ccccn1)Cc1nccn1Cc1ccccc1`
Result: -9.98

Ask: // same read-out, input: `COc1cccc(CCNCc2c(C)nn(C)c2N(C)C)c1`
Result: 67.59

Ask: // same read-out, input: CCC(C)S(=O)(=O)N1CCc2nc(C3CCNCC3)ncc2C1 (stereo not drawn)
Result: -0.83

Ask: // same read-out, input: `CCN1CCn2c(C)cnc2C12CCN(C(=O)NCC(C)C)CC2`
Result: -29.74

Ask: // same read-out, input: `CN(Cc1ccccc1F)Cc1cc2c(cc1Br)OCCO2`
Result: 12.68

Ask: // same read-out, input: Cc1cnc(N2CCOC(C(=O)NCc3ccccc3)C2)s1 (stereo not drawn)
Result: 10.03

Ask: // same read-out, input: Cc1occc1C(=O)N1CCC2(CCC(C(=O)NCC3CC3)O2)CC1 (stereo not drawn)
Result: 51.19

Ask: // same read-out, input: CCc1nnc(CN2CCC(C3CCCCCN3C(C)=O)CC2)o1 (stereo not drawn)
Result: -5.58

Ask: // same read-out, input: CC(O)CN1CCC(CN(C)Cc2ccc(C#N)cc2)CC1 (stereo not drawn)
Result: -3.99

Ask: // same read-out, input: `CCc1c(NCc2cccnc2)cnn1CC(C)C`
Result: -16.94

Ask: // same read-out, input: Cc1cc(NC(=O)C(C)N2CCN(c3nc(C)ns3)CC2)on1 (stereo not drawn)
Result: 22.29

Ask: // same read-out, input: NC1CCc2nc(-c3cccnc3)nc(Nc3ccc(F)cc3)c2C1 (stereo not drawn)
Result: -13.75

Ask: // same read-out, input: `CCn1cc(-c2nn3c(C(F)(F)F)nnc3s2)cn1`
Result: -21.49

Ask: // same read-out, input: `Cc1noc([C@H]2C[C@H]3OCC[C@H]3N(Cc3cccs3)C2)n1`
Result: -27.21

Ask: // same read-out, input: O=S(=O)(c1ccccc1F)N1CCCCC1c1cc[nH]n1 (stereo not drawn)
Result: -16.62

Ask: // same read-out, input: `COc1ccc(CN(Cc2cc(C)no2)C2CC2)cc1`
Result: -16.88

Ask: // same read-out, input: `N#Cc1ccc(F)c(CNc2ccc(F)cc2OCCO)c1`
Result: -17.04

Ask: // same read-out, input: `O=C(NCCNc1ncccn1)N1CCc2ccccc2C1`
Result: -17.17

Ask: // same read-out, input: `CC(=O)NCCc1ccc(S(=O)(=O)Nc2ccc(C)cc2F)s1`
Result: 22.16

Ask: // same read-out, input: `Cc1nc2ccc(Cl)cn2c1CN1CCN(S(=O)(=O)N2CCCC2)CC1`
Result: -21.9

Ask: // same read-out, input: `Cc1ccc(C(=O)N2C[C@H]3CCC[C@@]3(COCC3CCOCC3)C2)o1`
Result: -35.36

Ask: // same read-out, input: Cc1cnn(C2CN(CC(O)COc3ccc(C#N)cc3)C2)c1 (stereo not drawn)
Result: -2.84

Ask: // same read-out, input: `CN(C)C(=O)N1CCc2onc(C(=O)Nc3cccnc3)c2C1`
Result: 67.19

Ask: // same read-out, input: `CN(Cc1cccnc1)C[C@H]1OC[C@@H]2CCN(C(=O)C3CC3)C[C@@H]21`
Result: 8.62

Ask: // same read-out, input: `Cc1nn(C)c(N(C)C)c1CNCc1cccc(Cn2cncn2)c1`
Result: -42.39

Ask: // same read-out, input: O=C(NCC1CC1)C1CCC2(CCN(C(=O)c3ccoc3)CC2)O1 (stereo not drawn)
Result: 36.99

Ask: // same read-out, input: `Cc1cc(NCCS(C)(=O)=O)nc2ccccc12`
Result: -0.6

Ask: // same read-out, input: `N#Cc1ccc(SCCC(=O)O)cc1`
Result: 1.8

Ask: // same read-out, input: `O=C(c1cscn1)N1CCC2(CCN(Cc3nccs3)C2)CC1`
Result: -14.66

Ask: // same read-out, input: `CCCn1cc(-c2cc(-c3ccoc3)c(C#N)c(N)n2)c(C)n1`
Result: 61.28

Ask: // same read-out, input: `COc1cccc2c1ccn2CCNC(=O)CC(C)C`
Result: -55.67

Ask: // same read-out, input: O=C(NCC1CC1)C1CCC2(CCN(C(=O)c3cccnc3)CC2)O1 (stereo not drawn)
Result: 22.71

Ask: // same read-out, input: CCN1CC2(CC1=O)CN(C(C)=O)CCN(S(=O)(=O)CC)C2 (stereo not drawn)
Result: -161.57

Ask: // same read-out, input: `CCCn1cc(-c2cc(-c3c[nH]cn3)c(C#N)c(N)n2)c(C)n1`
Result: 38.15

Ask: // same read-out, input: O=C1CCSCC(C(=O)N2CCCC2)N1 (stereo not drawn)
Result: 19.35

Ask: // same read-out, input: `O=C(NCc1cccnc1)[C@H]1C[C@@H]2CCN(c3ccncn3)C[C@H]2O1`
Result: 23.53

Ask: // same read-out, input: `COc1cccc(CN2CCC3(CCN(c4ncc(C)cn4)CC3)C2)c1`
Result: 13.26
